Molecular target: thrombospondin 1 (TS1) receptor
recorded endpoint: inhibition of G361 cell attachment to rCBD-coated wells (% inhibition)

1: RFYVVMWK [4N1-1]
2: FIRVVMYEGKK [7N3]
I'm curious whether 1 or 2 has the smaller inhibition of G361 cell attachment to rCBD-coated wells number. Which is it? # respond with the chosen item's label 1
